assay: RP, Phenomenex Luna C18, 150 × 4.6 mm, 3 µm, 25 °C, 0.5 mL/min, estimated dead time 3.2 min; A: water + 0.1% formic acid, pH 3; B: acetonitrile + 0.1% formic acid, pH 3; gradient (min/%B) 0/0 30/30 35/40 50/80 52/80 60/0 65/0; conditions: stereoisomer not certain
value kind: LC retention time (min)

Look over these answered cases.
| compound | LC retention time [min] |
| --- | --- |
| COc1cc(CC(=O)O)ccc1O | 16.4 |
| CC12CCc3occc3C1CCC13CC(CCC12)C(O)(CO)C3 (configuration not stated) | 50 |
| Oc1ccc(C=Cc2cc(O)cc(O)c2)cc1 | 38.8 |
| COc1c(O)cc(C(=O)O)cc1OS(=O)(=O)O [4-O-methylgallic acid 3-O-sulfate] | 11.7 |
| COc1cc(C(=O)O)ccc1O | 15.7 |

[I] Cn1cnc2c1c(=O)[nH]c(=O)n2C
[II] CC1OC(OC2C(O)C(OCCc3ccc(O)c(O)c3)OC(CO)C2OC(=O)C=Cc2ccc(O)c(O)c2)C(O)C(O)C1O (configuration not stated) [Verbascoside]
Which record shows the lower LC retention time: the first, I , or the second, II ? Answer by quoting the chosen item's label. I
(I: 6.29 min, II: 23 min)

[P] O=c1oc2cc(O)ccc2c2ccccc12
[Q] O=c1cc(-c2ccc(O)cc2)oc2cc(OC3OC(CO)C(O)C(O)C3O)cc(O)c12 (configuration not stated) [Apigenin 7-O-glucoside]
// which entry has the larger LC retention time value, P or Q ? Give the label under which the chosen entry appears. P
(P: 44.4 min, Q: 27.6 min)

Taken from the RepoRT retention time repository (doi:10.1016/j.foodchem.2021.129757).
